Known PBM binding z-score of a selection of sequences
System: PPARg homodimer (NR concentration 180 nM)
Experiment: PBM binding z-score (relative to random genomic background probes); higher = stronger binding; sequences stand for … in GC…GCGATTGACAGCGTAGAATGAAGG
Respond numerically, and do not add a unit to the figure.

Ask: Which PBM binding z-score is listed for "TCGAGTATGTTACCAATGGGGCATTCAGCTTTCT" ?
Result: -0.422

Next:
Ask: Quick one: PBM binding z-score of "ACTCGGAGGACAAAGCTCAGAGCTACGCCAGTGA" ?
Result: -1.15

Ask: Param item: "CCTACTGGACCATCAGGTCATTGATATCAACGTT"
Result: 2.23

Ask: Repeat for the following sequence: "CCTCGGAGGACAGAATGTCAGAGCTGTCCGCTTT"
Result: 0.0941

Ask: Try this sequence too: "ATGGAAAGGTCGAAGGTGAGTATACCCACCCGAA"
Result: 1.61

Ask: Moving on to "ATCTCTAGGTAAACGTTCAGTGAATCCCGAGGAT"
Result: 0.198

Ask: What about "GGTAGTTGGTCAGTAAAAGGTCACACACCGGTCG" ?
Result: 4.48

Ask: Field entry: "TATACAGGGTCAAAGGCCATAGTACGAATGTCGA"
Result: 2.99

###

Test system: RXRa DBDmut IVT, anti-RXR (DBD mutation: RXRa K156A/R161A, NR concentration 90 nM)
Assay: PBM binding z-score (relative to random genomic background probes); higher = stronger binding; sequences stand for … in GC…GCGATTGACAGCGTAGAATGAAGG
PBM binding z-score vs 0.6: at or above is rule met, below is rule not met.

Ask: Reported PBM binding z-score reaches at least 0.6 for "GTACCAAGGTGAATAGGCCGTTGATGAGTAGGCG" ?
Result: rule not met

Continuing:
Ask: For this sequence, is measured PBM binding z-score 0.6 or higher? "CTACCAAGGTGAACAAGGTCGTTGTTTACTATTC"
Result: rule met

Ask: Now the same for "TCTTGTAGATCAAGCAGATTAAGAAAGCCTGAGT"
Result: rule not met

Ask: Please do the same for "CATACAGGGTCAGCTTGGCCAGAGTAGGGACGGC" as well.
Result: rule met

###

System: LXRa:RXRa (NR concentration 270 nM, RXRa partner concentration 90 nM)
Test: PBM binding z-score (relative to random genomic background probes); higher = stronger binding; sequences stand for … in GC…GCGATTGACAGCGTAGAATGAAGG
Classify by PBM binding z-score. Ranges: LOW = under 1, MEDIUM = from 1 up to 4, HIGH = 4 and over

Use the examples below as a reference point.
Ask: Bin? "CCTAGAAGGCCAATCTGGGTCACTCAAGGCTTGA"
Result: MEDIUM

Ask: Subsequent entry: "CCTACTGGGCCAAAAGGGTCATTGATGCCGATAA"
Result: MEDIUM

Ask: Now the sequence "CCGCGTAGGTTATGGGGCATTCAGGCAACGGTGA"
Result: LOW

Ask: Now consider "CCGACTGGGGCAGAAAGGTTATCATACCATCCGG" and answer again.
Result: LOW

Ask: Also need "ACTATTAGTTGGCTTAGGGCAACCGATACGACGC" , thanks.
Result: LOW

Ask: Cool, now "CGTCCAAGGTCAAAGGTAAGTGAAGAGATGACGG"
Result: HIGH

Ask: And for "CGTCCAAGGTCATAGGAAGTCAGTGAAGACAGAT" ?
Result: HIGH

Ask: What would you report for "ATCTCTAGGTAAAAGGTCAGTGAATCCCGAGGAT" ?
Result: MEDIUM

Ask: Input "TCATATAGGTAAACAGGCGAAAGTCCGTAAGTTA"
Result: LOW

Ask: Next sequence up: "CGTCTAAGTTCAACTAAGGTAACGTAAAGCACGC"
Result: HIGH

More entries:
Ask: Using the reported PBM binding z-score, which band applies to "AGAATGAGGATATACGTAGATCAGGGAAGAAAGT" ?
Result: LOW

Ask: How about "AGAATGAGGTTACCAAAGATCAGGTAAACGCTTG" ?
Result: HIGH

Ask: Ok, now "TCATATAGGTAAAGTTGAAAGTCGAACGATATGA"
Result: LOW

Ask: Another: "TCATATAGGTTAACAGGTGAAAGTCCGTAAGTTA"
Result: MEDIUM

Ask: Also, "TCTAGCAGGCCAGAGGGTCACTGAAGAGGTACGG" please.
Result: MEDIUM
